// reported kinase still bound, per cent of control per item
Tested on: EGFR (human), P00533 [752-759 del]
Sequence (P00533 whole entry, looked up, stated change not applied): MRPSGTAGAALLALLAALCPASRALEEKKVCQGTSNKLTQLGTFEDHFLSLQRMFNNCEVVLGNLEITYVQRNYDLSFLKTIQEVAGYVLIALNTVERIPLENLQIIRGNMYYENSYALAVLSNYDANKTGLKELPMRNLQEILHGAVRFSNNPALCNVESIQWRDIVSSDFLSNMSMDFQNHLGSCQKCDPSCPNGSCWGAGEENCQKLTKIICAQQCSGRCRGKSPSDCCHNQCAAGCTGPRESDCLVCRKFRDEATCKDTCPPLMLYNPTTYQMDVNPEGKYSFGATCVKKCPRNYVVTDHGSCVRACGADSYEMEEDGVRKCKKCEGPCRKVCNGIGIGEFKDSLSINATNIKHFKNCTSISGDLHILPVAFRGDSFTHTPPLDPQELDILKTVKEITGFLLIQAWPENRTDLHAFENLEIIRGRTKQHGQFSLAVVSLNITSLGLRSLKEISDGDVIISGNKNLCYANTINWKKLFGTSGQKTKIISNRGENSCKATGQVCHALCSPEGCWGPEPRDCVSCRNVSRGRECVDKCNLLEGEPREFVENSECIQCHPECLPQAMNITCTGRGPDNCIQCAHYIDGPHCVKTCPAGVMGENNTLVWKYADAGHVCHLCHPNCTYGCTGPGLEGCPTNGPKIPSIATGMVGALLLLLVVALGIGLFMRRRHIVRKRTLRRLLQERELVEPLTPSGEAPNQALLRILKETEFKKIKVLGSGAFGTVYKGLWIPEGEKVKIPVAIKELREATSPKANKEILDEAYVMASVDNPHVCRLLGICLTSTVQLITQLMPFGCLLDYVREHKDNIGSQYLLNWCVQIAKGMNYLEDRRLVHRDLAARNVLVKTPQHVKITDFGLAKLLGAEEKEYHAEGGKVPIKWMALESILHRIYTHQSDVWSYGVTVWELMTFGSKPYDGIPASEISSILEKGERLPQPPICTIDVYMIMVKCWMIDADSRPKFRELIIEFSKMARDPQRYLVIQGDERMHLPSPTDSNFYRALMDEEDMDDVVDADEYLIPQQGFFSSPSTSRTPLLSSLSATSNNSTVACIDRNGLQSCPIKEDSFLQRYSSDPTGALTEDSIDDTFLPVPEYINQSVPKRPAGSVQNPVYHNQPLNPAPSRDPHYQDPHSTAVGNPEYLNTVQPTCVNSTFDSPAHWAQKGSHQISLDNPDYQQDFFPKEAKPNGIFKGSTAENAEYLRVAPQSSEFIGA
ASSAY COMMENT: KINOMEscan competition binding
CONDITION SUMMARY: compound 10.0 µM
MEASURED ENDPOINT: kinase still bound, per cent of control (%)

{"COMPOUND": "COc1cc(C(=O)NC2CCN(C)CC2)ccc1Nc1ncc2c(n1)N(C1CCCC1)CCC(=O)N2C(C)C", "RECORDED MEASUREMENT": 100}
{"COMPOUND": "CCOc1cc(N2CCC(O)CC2)ccc1Nc1ncc2c(n1)N(C)c1ccccc1C(=O)N2C", "RECORDED MEASUREMENT": 100}
{"COMPOUND": "C=CC(=O)Nc1cccc(Oc2nc(Nc3ccc(N4CCN(C)CC4)cc3OC)ncc2Cl)c1", "RECORDED MEASUREMENT": 0.25}
{"COMPOUND": "O=C(O)c1ccc(Nc2ncc3c(n2)-c2ccc(Cl)cc2C(c2c(F)cccc2F)=NC3)cc1", "RECORDED MEASUREMENT": 34}
{"COMPOUND": "Cc1ccc(NC(=O)c2cccc(C(C)(C)C#N)c2)cc1Nc1ccc2ncn(C)c(=O)c2c1", "RECORDED MEASUREMENT": 17}
{"COMPOUND": "COc1cc(C)c(Sc2cnc(NC(=O)c3ccc(CNC(C)C(C)C)cc3)s2)cc1C(=O)N1CCN(C(C)=O)CC1 (centres undefined)", "RECORDED MEASUREMENT": 100}
{"COMPOUND": "CC1=C(C(=O)Nc2cc3cn[nH]c3cc2F)C(c2ccc(C(F)(F)F)cc2)CC(=O)N1 (centres undefined)", "RECORDED MEASUREMENT": 90}
{"COMPOUND": "O=c1[nH]c2ccccc2n1C1CCN(Cc2ccc(-c3nc4cc5[nH]cnc5cc4nc3-c3ccccc3)cc2)CC1", "RECORDED MEASUREMENT": 58}
{"COMPOUND": "CCN1CCN(Cc2ccc(Nc3ncc4c(n3)N(C)c3ccccc3C(=O)N4C)cc2C(F)(F)F)CC1", "RECORDED MEASUREMENT": 98}
